- Run Description: gradient 5% acetonitrile 3 min, to 50% in 2 min, to 85% in 15 min, held 3 min, 100 µL/min
- Study Conditions: column: Zorbax Extend-C18 2.1 x 50 mm; eluents: water / acetonitrile, 0.1% formic acid
Result Type: RP-LC retention time (s)

compound=Cc1cc(C)n(-c2ccnc(N(C)Cc3ccccc3)n2)n1 observed_measurement=1070
compound="OC(CN1CCN(c2ccccc2Cl)CC1)c1ccc2c(c1)OCO2 (stereo unspecified)" observed_measurement=670
compound=Cc1ccc(C)c(NC(=O)Cn2c(C)nc3c(sc4nc(-c5ccccc5)ccc43)c2=O)c1 observed_measurement=1090

1: Cc1cc(C)cc(NS(=O)(=O)c2cc(-c3[nH]ncc3C(=O)N3CCOCC3)oc2C)c1
2: Cc1ccc(N2C(=O)C3N=NN(Cc4nc(-c5ccc(C)c(C)c5)no4)C3C2=O)cc1 (stereo unspecified)
Q. Higher RP-LC retention time: 1 or 2 ? Choose, then provide that item's label.
A. 2
(2: 1110 s, 1: 731 s)

----------
- Run Description: gradient 5% acetonitrile 3 min, to 50% in 2 min, to 85% in 15 min, held 3 min, 100 µL/min
- Study Conditions: column: Zorbax Extend-C18 2.1 x 50 mm; eluents: water / acetonitrile, 0.1% formic acid
Result Type: RP-LC retention time (s)

compound=O=C(CSc1nnnn1-c1ccccc1)c1ccc2c(c1)OCCO2 result_type="RP-LC retention time" observed_measurement=868
compound="O=C1NC2CCCCC2C2=NC(CN3CCN(c4ccccc4)CC3)CN12 (centres undefined)" result_type="RP-LC retention time" observed_measurement=655
compound="CC1CCN(C(=O)C2c3ccccc3CCN2C(=O)C(C)C)CC1 (centres undefined)" result_type="RP-LC retention time" observed_measurement=883
compound=Cc1cc(Br)ccc1NC(=O)CCc1nc(C2=CCN(C)CC2)no1 result_type="RP-LC retention time" observed_measurement=642
compound="COC(=O)c1ncn2c1C(=O)N(CCc1ccccc1)C(C)(C(=O)NC1CCCC1)C2 (centres undefined)" result_type="RP-LC retention time" observed_measurement=738
compound=Cc1ccc(C)c(N2CCN(c3ccnc(SCC(=O)Nc4ccc(F)cc4C)n3)CC2)c1 result_type="RP-LC retention time" observed_measurement=1010
compound="O=C(c1cnccn1)N1CCC(N2C(=O)C(OCC3CC3)C23CCCCC3)CC1 (centres undefined)" result_type="RP-LC retention time" observed_measurement=752
compound=Cc1ccsc1C(=O)Nc1ccccc1SCc1nnc(-c2ccccc2)o1 result_type="RP-LC retention time" observed_measurement=1080
compound=COc1ccc(-c2noc(-c3cn(C)c4ccc(C)cc4c3=O)n2)cc1OC result_type="RP-LC retention time" observed_measurement=796
compound=COC(=O)c1cccc(NS(=O)(=O)c2cc3n(c2)CCN(C)C3=O)c1 result_type="RP-LC retention time" observed_measurement=683
compound="CCN1CCC2(CC1)N=C(c1ccc(F)cc1)CC(c1cccc(OC)c1O)N2 (centres undefined)" result_type="RP-LC retention time" observed_measurement=592
compound=Cc1cc(-c2nnc(C3CCC3)o2)c(C)n1CC(=O)NCc1ccccc1C(F)(F)F result_type="RP-LC retention time" observed_measurement=960
compound=COC(=O)c1ccc(NS(=O)(=O)c2ccc(-c3c(C)noc3C)cc2)cc1 result_type="RP-LC retention time" observed_measurement=866
compound="CN1CCN(CCCNC(=O)CN2C(=O)C3CCCCN3c3ccc(C(=O)N4CCCC4)cc32)CC1 (centres undefined)" result_type="RP-LC retention time" observed_measurement=579
compound=O=C(C1CC1)N1CCc2sc(S(=O)(=O)NCc3cccc(Cl)c3)cc2C1 result_type="RP-LC retention time" observed_measurement=923
compound=Cc1c(C(=O)NCCOc2cccc(C(F)(F)F)c2)cccc1[N+](=O)[O-] result_type="RP-LC retention time" observed_measurement=893
compound=CCCCN1CCN(Cc2nc(-c3ccc(N4CCCCC4)nc3)no2)CC1 result_type="RP-LC retention time" observed_measurement=602
compound="CC1Oc2ccc(-c3csc(NC(=O)C4CC4)n3)cc2N(C)C1=O (centres undefined)" result_type="RP-LC retention time" observed_measurement=787
compound=COc1ccc(NC(=O)N2CCC3(CC2)N=C(c2cccc(F)c2)C(=O)N3)c(OC)c1 result_type="RP-LC retention time" observed_measurement=786

----------
- Run Description: gradient 5% acetonitrile 3 min, to 50% in 2 min, to 85% in 15 min, held 3 min, 100 µL/min
- Study Conditions: column: Zorbax Extend-C18 2.1 x 50 mm; eluents: water / acetonitrile, 0.1% formic acid
Result Type: RP-LC retention time (s)

compound=O=C(CC1CCCC1)N1[C@H]2CC[C@@H]1c1cnc(-c3ccc(F)cc3)nc1C2 measurement_unit=s observed_measurement=1060
compound=CCNc1nc(NC(C)C)nc(-n2cnc(SC)n2)n1 measurement_unit=s observed_measurement=897
compound=O=c1n(Cc2cccc(Br)c2)nc2ccc(S(=O)(=O)N3CCCC3)cn12 measurement_unit=s observed_measurement=928
compound="COc1ccc2nc(NC(=O)C3CCN(C(=O)C4Sc5ccccc5NC4=O)CC3)sc2c1 (centres undefined)" measurement_unit=s observed_measurement=775

----------
- Run Description: gradient 5% acetonitrile 3 min, to 50% in 2 min, to 85% in 15 min, held 3 min, 100 µL/min
- Study Conditions: column: Zorbax Extend-C18 2.1 x 50 mm; eluents: water / acetonitrile, 0.1% formic acid
Result Type: RP-LC retention time (s)

P: Cc1nc(C(=O)Nc2cc(F)ccc2F)c(C)o1
Q: CN(CCNC(=O)c1ccc2[nH]c3c(c2c1)CN(C(=O)C1CCC1)CC3)C1CCCCC1
Q. Higher RP-LC retention time: P or Q ? Choose, then provide that item's label.
A. P
(P: 998 s, Q: 646 s)

----------
- Run Description: gradient 5% acetonitrile 3 min, to 50% in 2 min, to 85% in 15 min, held 3 min, 100 µL/min
- Study Conditions: column: Zorbax Extend-C18 2.1 x 50 mm; eluents: water / acetonitrile, 0.1% formic acid
Result Type: RP-LC retention time (s)

compound="CCCNC(=O)C1CCCN(c2ccc(SCC(=O)Nc3ccc(C)c(C)c3)nn2)C1 (stereo not drawn)" observed_measurement=678
compound=Cc1ccc(C(=O)NCc2[nH]nc3ccccc23)cc1C observed_measurement=788
compound=O=C(CCNc1c(-c2cccc(F)c2)nc2cnccn12)NCc1ccccc1Cl observed_measurement=780

----------
- Run Description: gradient 5% acetonitrile 3 min, to 50% in 2 min, to 85% in 15 min, held 3 min, 100 µL/min
- Study Conditions: column: Zorbax Extend-C18 2.1 x 50 mm; eluents: water / acetonitrile, 0.1% formic acid
Result Type: RP-LC retention time (s)

compound=CN(C)S(=O)(=O)N1CCC(n2c(Cc3ccccc3)nn(C)c2=O)CC1 result_type="RP-LC retention time" observed_measurement=748
compound="O=C(Nc1ccc(F)c(Cl)c1)C1CCN(C(=O)c2ncn3c2COC(c2ccccc2)C3)CC1 (stereo not drawn)" result_type="RP-LC retention time" observed_measurement=864
compound="O=C(c1cccc(F)c1)N1CCCC1c1nc(-c2ccccc2)no1 (stereo not drawn)" result_type="RP-LC retention time" observed_measurement=946

----------
- Run Description: gradient 5% acetonitrile 3 min, to 50% in 2 min, to 85% in 15 min, held 3 min, 100 µL/min
- Study Conditions: column: Zorbax Extend-C18 2.1 x 50 mm; eluents: water / acetonitrile, 0.1% formic acid
Result Type: RP-LC retention time (s)

molecule="Cc1noc(C)c1-c1ccc(S(=O)(=O)NC2CCCc3ccccc32)cc1 (stereo not given)" result_type="RP-LC retention time" observed_measurement=1040
molecule="CCOc1ccccc1C(=O)NC1CCN(c2cc(-c3cccs3)[nH]n2)C1 (stereo not given)" result_type="RP-LC retention time" observed_measurement=769
molecule=CCn1ncc(NC(=O)c2ccc(F)cc2)c(N2CCOCC2)c1=O result_type="RP-LC retention time" observed_measurement=772
molecule=Cc1ccc(F)cc1S(=O)(=O)N1CCC(n2cnnc2C2CC2)CC1 result_type="RP-LC retention time" observed_measurement=734
molecule=COc1ccc(-c2nnc3n2CCN(Cc2cccc(C#N)c2)C3)cc1 result_type="RP-LC retention time" observed_measurement=667
molecule="COc1cc(C(=O)OC(C)CN2CCOCC2)cc(OC)c1OC (stereo not given)" result_type="RP-LC retention time" observed_measurement=662
molecule="CCN(CC)CCNC(=O)c1sc2ncn(CC(=O)N3CC(C)CC(C)C3)c(=O)c2c1C (stereo not given)" result_type="RP-LC retention time" observed_measurement=658
molecule=CCOC(=O)C1CCN(C(=O)COc2ccc(NC(C)=O)cn2)CC1 result_type="RP-LC retention time" observed_measurement=633
molecule=CCOC(=O)c1c(C)[nH]c(NC(=O)N2CCN(c3ccc(OC)cc3)CC2)c1C result_type="RP-LC retention time" observed_measurement=703
molecule="CCC1(C(=O)Nc2ccc(C(C)C)cc2)CCCCC(=O)N1 (stereo not given)" result_type="RP-LC retention time" observed_measurement=872
molecule=COc1ccc(CNC(=O)Cn2c(=O)c3cc(C4CC4)nn3c3ncccc32)cc1 result_type="RP-LC retention time" observed_measurement=742
molecule=Cc1ccn2c(NC(=O)COc3ccccc3)c(-c3ccccc3)nc2c1 result_type="RP-LC retention time" observed_measurement=683
molecule="Cc1nc2cc(N3CC(C(=O)Nc4ccccc4)CC3=O)ccc2o1 (stereo not given)" result_type="RP-LC retention time" observed_measurement=703
molecule="Cc1ccccc1CNC(=O)c1cc2n(n1)CC(C)(C(=O)NCc1ccccc1)N(C)C2=O (stereo not given)" result_type="RP-LC retention time" observed_measurement=769
molecule="CCCCCNC(=O)C1CC(=O)N(CCc2c[nH]c3ccc(Cl)cc23)C1 (stereo not given)" result_type="RP-LC retention time" observed_measurement=740
